- TARGET_DESC: human MP1 (Homo sapiens, UniProt Q5JRX3)
- Sequence (Q5JRX3 29-1037): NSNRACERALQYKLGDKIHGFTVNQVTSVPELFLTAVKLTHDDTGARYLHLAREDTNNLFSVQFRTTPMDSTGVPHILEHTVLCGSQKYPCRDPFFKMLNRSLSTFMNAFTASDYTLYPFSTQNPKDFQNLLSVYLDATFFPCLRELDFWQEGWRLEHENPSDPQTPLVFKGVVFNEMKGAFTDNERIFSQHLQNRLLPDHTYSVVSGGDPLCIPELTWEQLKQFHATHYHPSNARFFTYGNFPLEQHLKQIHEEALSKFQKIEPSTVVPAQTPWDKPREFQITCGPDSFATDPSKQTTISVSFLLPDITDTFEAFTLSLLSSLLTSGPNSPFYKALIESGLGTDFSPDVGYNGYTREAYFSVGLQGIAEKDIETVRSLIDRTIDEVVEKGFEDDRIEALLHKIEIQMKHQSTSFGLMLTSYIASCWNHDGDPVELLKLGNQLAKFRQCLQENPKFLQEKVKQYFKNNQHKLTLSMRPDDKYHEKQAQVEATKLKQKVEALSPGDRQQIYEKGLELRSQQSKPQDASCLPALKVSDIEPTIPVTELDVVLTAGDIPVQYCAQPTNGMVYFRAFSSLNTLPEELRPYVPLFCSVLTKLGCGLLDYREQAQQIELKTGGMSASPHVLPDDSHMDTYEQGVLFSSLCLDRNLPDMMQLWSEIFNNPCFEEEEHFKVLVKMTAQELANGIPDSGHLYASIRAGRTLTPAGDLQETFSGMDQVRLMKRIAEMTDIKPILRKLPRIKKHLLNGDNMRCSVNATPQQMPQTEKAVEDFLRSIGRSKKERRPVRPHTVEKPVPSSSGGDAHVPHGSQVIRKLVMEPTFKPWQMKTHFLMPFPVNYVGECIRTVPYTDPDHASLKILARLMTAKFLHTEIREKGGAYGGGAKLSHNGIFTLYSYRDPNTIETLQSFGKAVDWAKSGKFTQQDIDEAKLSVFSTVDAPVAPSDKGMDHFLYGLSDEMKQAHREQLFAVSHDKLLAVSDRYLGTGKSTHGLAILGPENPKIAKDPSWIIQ
- Assay type: biochemical
- MEASUREMENT_SETUP: from kcat (HPLC) and Km (alternate substrate inhibition)
VALUE_TYPE: kcat/Km (M × min^−1 × 10^5)

• Y↓ADAIFTNSYRKVLG▼QLS▼ARKL↓QDIMQQGESNQERGA [Growth Hormone Releasing factor] = 29.4
• RPKPQQF↓FG▼LM [Substance P] = 23.6
• Y↓GGFLRR↓IRP▼KLKWDNQ [Dynorphin A] = 62.6
• CGNLSTC▼MLG▼TYTQDFNK↓FHTFPQTAIGVGAP [Calcitonin] = 15.4

====

- TARGET_DESC: human MP1 (Homo sapiens, UniProt Q5JRX3)
- Assay type: biochemical
- MEASUREMENT_SETUP: from kcat (HPLC) and Km (alternate substrate inhibition)
VALUE_TYPE: kcat/Km (M × min^−1 × 10^5)

• Y↓GGFLRRQFK↓VVT↓RSQED▼PNAYYEEL▼FDV [Leumorphin (porcine), Leumorphin] = 63.5
• DAEFRHDSGYEVHHQKLVFF▼AEDVGSNKGAIIGL↓MVGGVV [β-Amyloid (1–40)] = 19.5
• Y↓GGFLRRQF↓K▼VVT [Dynorphin B] = 46.3
• YGG↓F↓MTSEKSETPLV↓T↓L▼FKNA▼IIKNAYKKGE [β-endorphin] = 62.6
• SLRRSSCFGGRMD▼RIGAQSGLGCNS▼FRY (disulfide) [Atrial natriuretic peptide] = 199.2
